# target: CYP1A2 (Homo sapiens, UniProt P05177)
# Sequence (P05177 whole entry): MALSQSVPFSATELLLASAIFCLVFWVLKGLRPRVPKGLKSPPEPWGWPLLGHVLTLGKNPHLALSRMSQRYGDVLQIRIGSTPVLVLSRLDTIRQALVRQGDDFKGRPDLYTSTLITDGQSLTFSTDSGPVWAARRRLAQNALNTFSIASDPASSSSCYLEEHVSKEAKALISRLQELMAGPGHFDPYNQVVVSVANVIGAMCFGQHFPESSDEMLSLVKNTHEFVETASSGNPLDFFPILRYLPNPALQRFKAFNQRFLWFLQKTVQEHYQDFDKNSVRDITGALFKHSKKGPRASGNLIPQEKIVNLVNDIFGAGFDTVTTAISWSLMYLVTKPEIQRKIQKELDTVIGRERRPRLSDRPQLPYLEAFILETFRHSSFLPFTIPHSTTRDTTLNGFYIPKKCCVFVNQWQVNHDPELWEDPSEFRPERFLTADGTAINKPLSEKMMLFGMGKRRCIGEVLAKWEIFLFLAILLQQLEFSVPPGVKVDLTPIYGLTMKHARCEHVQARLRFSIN
# method_description: CYP1A2 inhibition (phenacetin O-deethylation) in Ad-P450 cells, substrate cocktail
# Format: in vitro ADME
# Set-up: expressed in transfected cells; host or cells: HepG2 cells infected with Ad-CYP1A2 (5 MOI) together with the four other P450 adenoviruses
# assay_context: probe phenacetin (O-deethylation), read-out: Residual activity CYP1A2
assay_readout: activity at 5 h, 50 μM (%)
API: value field is a number in %; no unit string.

Task item: What value of activity at 5 h, 50 μM has been recorded for this entry: COc1cc(/C=C/C(=O)CC(=O)/C=C/c2ccc(O)c(OC)c2)ccc1O
Reply: 58.3
